- Protocol Details: growth suppression of yeast trafficking mutant, preliminary HTS, modulators of trafficking downstream of Golgi apparatus project, 1536-format plate, OD 615 nm (AID 637)
- Recorded Conditions: yeast transport mutant growth, absorbance 615 nm, 18 h; hits give high values
The source made the active and inactive calls. Rule as the data show it: active = inhibition above about 30%; inactive = the rest.
Assay Readout: inhibition

Below are worked cases with known answers.
C=CCn1c(SC(C)C(=O)NC2(C#N)CCCCC2)nnc1-c1ccc(OC)cc1 (stereo unspecified)    -5.25% (inactive)
Cc1ccc(C)c(NC(=O)C2CCC(C)(C(=O)O)C2(C)C)c1 (stereo unspecified)    -0.79% (inactive)
CC1CCN(C(=O)CSc2nc3c(cnn3-c3ccccc3)c(=O)[nH]2)CC1    1.67% (inactive)
CCCCCn1c(=O)[nH]c2cc(C(=O)NCCN3CCOCC3)ccc2c1=O    0.33% (inactive)
Cc1ccc2oc(=O)c3cnn(CC(=O)N4CCCc5ccccc54)c3c2c1    -0.82% (inactive)
O=C(Nn1cnnc1)C1Cc2ccccc2CN1S(=O)(=O)c1ccc(F)cc1 (stereo unspecified)    4.75% (inactive)
CC1(C)CC(=O)CC(C2(O)C(=O)N(Cc3ccccc3)c3ccccc32)O1 (stereo unspecified)    -4.75% (inactive)
CC(C)CCNC(=O)Cn1c(NCCC(C)C)nc2c1c(=O)n(C)c(=O)n2C    -2.5% (inactive)

Exercise: What value of measured inhibition is listed for `COc1ccccc1NCN1C(=O)CCC1=O` ?
Solution: 2% (inactive)

====

- Protocol Details: doxorubicin toxicity protection in MRP-1 cells – H69AR cells, CellTiter-Glo, duplicate, MRP-1 activator project, pilot screen (AID 807);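 also: compound pretreatment 18-22 h then 72 h combined with doxorubicin; 0% = doxorubicin alone and 100% = vehicle without doxorubicin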
- Recorded Conditions: H69AR viability with doxorubicin, CellTiter-Glo luminescence; at 10 µM; hits give high values
Calls of active or inactive are those of the source.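 The calls were made as follows: active = viability increase at or above a cutoff of the median across tested compounds plus 3 SD (cut at about 8.5% in these data, passing the limit was not always enough); inconclusive = some gains above the cutoff, reason not given; inactive = the rest.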
Assay Readout: viability increase

O=C(Cn1c(=O)[nH]c2ccsc2c1=O)NC1CCCCCC1    1.49% (inactive)
COC(=O)c1cc(=O)n(Cc2ccc3c(c2)OCO3)c(=Nc2ccccc2)s1    -5.95% (inactive)
Cc1ccc2[nH]c(=O)c3cc(C(=O)NCCN4CCN(C)CC4)sc3c2c1    -3.64% (inactive)
COc1ccc(N2CCN(C(=O)CSc3ccccc3)CC2)cc1    -3.92% (inactive)
COc1cccc2sc(Nc3nnc(-c4ccccc4Cl)o3)nc12    -4.31% (inactive)

Exercise: What viability increase value was documented for this compound, `Cc1cc(C)c2c(=O)n(CC(=O)NCCCN3CCN(c4ccccc4F)CC3)sc2n1` ?
Solution: -7.84% (inactive)

Exercise: Entry under review: `CCCNc1nc(N2CCOCC2)nc(N2CCOCC2)n1` . Reported viability increase?
Solution: -0.12% (inactive)

====

- Assay System: Receptor tyrosine-protein kinase erbB-2 (Homo sapiens) (UniProt P04626)
- Sequence (P04626 whole entry, looked up): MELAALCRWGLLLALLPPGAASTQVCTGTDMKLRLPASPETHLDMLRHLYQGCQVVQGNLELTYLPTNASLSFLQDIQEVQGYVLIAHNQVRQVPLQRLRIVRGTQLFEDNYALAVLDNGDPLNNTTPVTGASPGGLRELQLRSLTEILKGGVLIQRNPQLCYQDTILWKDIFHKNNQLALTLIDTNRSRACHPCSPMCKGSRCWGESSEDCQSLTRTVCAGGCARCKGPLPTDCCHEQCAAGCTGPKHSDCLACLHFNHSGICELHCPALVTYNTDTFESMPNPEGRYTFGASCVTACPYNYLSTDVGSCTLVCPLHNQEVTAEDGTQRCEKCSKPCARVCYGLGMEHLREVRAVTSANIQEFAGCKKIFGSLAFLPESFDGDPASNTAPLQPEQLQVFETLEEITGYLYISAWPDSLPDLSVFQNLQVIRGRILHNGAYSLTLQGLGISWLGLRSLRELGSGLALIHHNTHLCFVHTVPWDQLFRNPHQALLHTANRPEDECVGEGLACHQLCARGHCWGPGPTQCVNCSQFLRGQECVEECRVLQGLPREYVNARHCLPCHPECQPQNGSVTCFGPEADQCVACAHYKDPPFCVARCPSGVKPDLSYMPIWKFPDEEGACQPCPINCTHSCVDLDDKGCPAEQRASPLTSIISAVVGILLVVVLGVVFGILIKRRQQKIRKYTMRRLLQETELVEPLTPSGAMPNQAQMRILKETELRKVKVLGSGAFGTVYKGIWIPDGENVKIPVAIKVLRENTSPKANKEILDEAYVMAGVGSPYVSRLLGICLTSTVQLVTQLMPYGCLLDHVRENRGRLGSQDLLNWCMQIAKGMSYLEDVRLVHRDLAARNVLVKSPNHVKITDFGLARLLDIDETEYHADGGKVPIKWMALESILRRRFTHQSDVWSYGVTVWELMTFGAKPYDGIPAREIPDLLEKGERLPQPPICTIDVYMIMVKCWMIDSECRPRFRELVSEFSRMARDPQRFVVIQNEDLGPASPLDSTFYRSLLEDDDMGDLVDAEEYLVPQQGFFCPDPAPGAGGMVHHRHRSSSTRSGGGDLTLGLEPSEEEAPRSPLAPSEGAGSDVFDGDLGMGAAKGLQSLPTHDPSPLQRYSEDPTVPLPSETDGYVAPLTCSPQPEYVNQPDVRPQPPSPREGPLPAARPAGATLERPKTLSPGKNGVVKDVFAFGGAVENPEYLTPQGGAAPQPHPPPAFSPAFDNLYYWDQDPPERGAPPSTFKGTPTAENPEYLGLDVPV
- Protocol Details: Her2 expression decrease, cell viability multiplex – SKBR3 breast tumor cells, AlphaScreen, ATP viability, primary screen (AID 461);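 also: lower value means less Her2 protein in the cells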
- Recorded Conditions: 18-24 h, at 10 µM, hits give low values
Active and inactive are the calls of the source.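 Rule for the calls: active = Her2 level under about 52% in both replicate screens, with viability over 70% of control (limit read from the data); inconclusive = Her2 under the limit in one screen only, or viability under 70%; inactive = Her2 level above the set limit.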
Assay Readout: Her2 level

COc1cccc2c(=O)c3c(cnn3C)n(C)c12    100% (inactive)

Exercise: Please look up its Her2 level: `COc1ccc(CNC(=O)c2cnc3n(c2=O)CCS3)cc1`
Solution: 87.5% (inactive)

Exercise: Consider the compound shown here: `CC(C)c1nccn1S(=O)(=O)c1cc(Cl)ccc1Cl` What is its recorded Her2 level?
Solution: 112% (inactive)

Measured values drawn from PubChem BioAssay for this set.
